target: Nuclear receptor ROR-gamma (Mus musculus) (UniProt P51450); experiment: qHTS for inhibitors of ROR gamma transcriptional activity; conditions: Drosophila S2 Gal4-RORgamma UAS-luciferase reporter, 20 h; series mostly up to 53.6 µM; further: nearly all actives have a fitted effect of over 60% in size
Sequence (P51450 whole entry, looked up, the tested form may be a part): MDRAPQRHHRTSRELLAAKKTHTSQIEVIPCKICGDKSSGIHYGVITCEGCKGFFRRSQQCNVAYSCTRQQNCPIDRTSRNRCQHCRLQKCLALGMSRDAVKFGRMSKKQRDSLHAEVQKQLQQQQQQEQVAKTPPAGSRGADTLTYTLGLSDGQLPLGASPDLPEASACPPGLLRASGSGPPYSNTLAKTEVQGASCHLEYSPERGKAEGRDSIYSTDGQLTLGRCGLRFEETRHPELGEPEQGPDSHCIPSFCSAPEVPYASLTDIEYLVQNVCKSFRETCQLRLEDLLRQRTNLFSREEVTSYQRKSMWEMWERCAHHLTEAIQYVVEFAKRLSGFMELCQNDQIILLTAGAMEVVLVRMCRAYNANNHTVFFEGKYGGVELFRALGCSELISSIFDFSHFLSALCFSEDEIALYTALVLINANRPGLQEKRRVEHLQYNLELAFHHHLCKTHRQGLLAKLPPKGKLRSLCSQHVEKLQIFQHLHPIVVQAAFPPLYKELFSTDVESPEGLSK
In all, about 310,000 compounds went through this assay and about 17,000 (5.5%) were called active. Another 11% or so got no clear call; they are omitted. The call rests on the fitted dose curve; in most records, active means well fitted inhibition curve with a large enough effect; inconclusive means small, poorly fitted or top-dose-only effect, or effect the other way; inactive means no such curve, though single readings can be large or run the other way. What follows is part of a selection rich in actives, with near analogues and random picks from the rest.
Allowed answers: active, inactive

Query string: Give the logged outcome of this assay for the following molecule: Cc1ccc(C(=O)Nc2ccc(NC(=O)c3cccs3)cc2)c(C)c1
Result string: inactive

Query string: Give the logged outcome of this assay for the following molecule: O=C(NC1CCCC1)c1cc(-c2ccccc2)on1
Result string: inactive

Query string: Give the logged outcome of this assay for the following molecule: COc1ccc2c(c1)c(C(=O)N/N=C/c1cccs1)c(C)n2C
Result string: active

---

target: Nuclear receptor ROR-gamma (Mus musculus) (UniProt P51450); test: qHTS for inhibitors of ROR gamma transcriptional activity; conditions: Drosophila S2 Gal4-RORgamma UAS-luciferase reporter, 20 h; series mostly up to 53.6 µM; further: nearly all actives have a fitted effect of over 60% in size
Out of some 310,000 compounds screened, about 17,000 (5.5%) were called active. Not shown: some 11% with an inconclusive outcome. The call rests on the fitted dose curve; in most records, active means well fitted inhibition curve with a large enough effect; inconclusive means small, poorly fitted or top-dose-only effect, or effect the other way; inactive means no such curve, though single readings can be large or run the other way. Shown is part of a subset that was picked to be rich in actives.
Allowed answers: label 1 (active), label 0 (inactive)

Query string: Give the logged outcome of this assay for the following compound: O=S(=O)(Nc1ccccc1Cl)c1cccc2nsnc12
Result string: label 0

Query string: Give the logged outcome of this assay for the following compound: COc1ccc(S(=O)(=O)NCCc2cc3ccc(C)c(C)c3[nH]c2=O)cc1
Result string: label 0

Query string: Give the logged outcome of this assay for the following compound: CC(C)=CCN1CCN(Cc2cc3ccccc3[nH]2)CC1CCO (stereo not given)
Result string: label 0

Query string: Give the logged outcome of this assay for the following compound: O=C(NNc1ccccn1)c1ccc(Cl)nc1
Result string: label 1

Query string: Give the logged outcome of this assay for the following compound: O=C(CN(c1cc(C(F)(F)F)ccc1Cl)S(=O)(=O)c1ccccc1)NCc1cccnc1
Result string: label 0

Query string: Give the logged outcome of this assay for the following compound: Cc1nn(CCCC(=O)NCc2ccccc2Cl)c(=O)c2nccn12
Result string: label 0

Query string: Give the logged outcome of this assay for the following compound: CCc1ccc(N(CC(=O)NCc2cccnc2)S(=O)(=O)c2ccccc2)cc1
Result string: label 1

Query string: Give the logged outcome of this assay for the following compound: Cc1ccc2nc(NCCCNC(=O)c3cnccn3)c(C#N)cc2c1
Result string: label 0

Query string: Give the logged outcome of this assay for the following compound: COc1cc(NS(=O)(=O)c2ccc(NC(=S)NC(=O)c3ccc(Br)cc3)cc2)ncn1
Result string: label 0

Query string: Give the logged outcome of this assay for the following compound: O=C(CCc1ccccc1)NCc1cccnc1
Result string: label 0

Query string: Give the logged outcome of this assay for the following compound: Cc1ccc(N(Cc2cc3ccccc3[nH]c2=O)C(=O)c2cccs2)cc1
Result string: label 0

Query string: Give the logged outcome of this assay for the following compound: O=C(CCl)NNc1cccc(Cl)n1
Result string: label 0

Query string: Give the logged outcome of this assay for the following compound: COc1ccc(CNc2nccs2)cc1
Result string: label 0

Query string: Give the logged outcome of this assay for the following compound: Cc1cc(-c2n[nH]c(=S)n2/N=C/C(Br)=C/c2ccccc2)n[nH]1
Result string: label 1

Query string: Give the logged outcome of this assay for the following compound: Cc1ccc(Cn2cc(C(=O)NN)c(=O)c3ccc(F)cc32)cc1
Result string: label 0

Query string: Give the logged outcome of this assay for the following compound: COc1cccc(C2c3[nH]c4ccccc4c3CCN2Cc2cccc(C)n2)c1 (stereo not given)
Result string: label 1

Query string: Give the logged outcome of this assay for the following compound: COc1cc(NC(=S)NCCSc2ccc(C)cc2)cc(OC)c1
Result string: label 1

Query string: Give the logged outcome of this assay for the following compound: Cc1cccnc1NC(=O)c1cccc(S(=O)(=O)N2CCN(c3ccc(F)cc3)CC2)c1
Result string: label 0

Query string: Give the logged outcome of this assay for the following compound: COc1cccc(NC(=O)CC2C(=O)NCCN2C(=S)Nc2ccc(F)cc2)c1 (stereo not given)
Result string: label 0

Query string: Give the logged outcome of this assay for the following compound: CC(C)CC(=O)NC(=S)NNC(=O)c1cccc([N+](=O)[O-])c1
Result string: label 1

---

target: Nuclear receptor ROR-gamma (Mus musculus) (UniProt P51450); test: qHTS for inhibitors of ROR gamma transcriptional activity; settings: Drosophila S2 Gal4-RORgamma UAS-luciferase reporter, 20 h; series mostly up to 53.6 µM; further: nearly all actives have a fitted effect of over 60% in size
In all, about 310,000 compounds went through this assay and about 17,000 (5.5%) were called active. About 11% were inconclusive and are not listed. Calls come from the whole dose curve; as a rule, active = well fitted inhibition curve with a large enough effect; inconclusive = small, poorly fitted or top-dose-only effect, or effect the other way; inactive = no such curve, though single readings can be large or run the other way. The sample as a whole holds a higher share of actives than the screen did.
Allowed answers: active, inactive

Query string: Give the logged outcome of this assay for the following compound: CN(CCO)S(=O)(=O)c1ccc2c(c1)C(=O)c1cc(S(=O)(=O)N(C)CCO)ccc1-2
Result string: inactive

Query string: Give the logged outcome of this assay for the following compound: Cc1ccc(S(=O)(=O)N2CCN(C(=O)N3CCOCC3)CC2)c(C)c1
Result string: inactive

Query string: Give the logged outcome of this assay for the following compound: COc1cccc2c(N/N=C/c3ccco3)cc(C)nc12
Result string: inactive

Query string: Give the logged outcome of this assay for the following compound: C=CCNC(=O)c1csc(-c2ccccc2)n1
Result string: inactive

Query string: Give the logged outcome of this assay for the following compound: S=c1[nH]nc(CSCc2ccc(Cl)cc2Cl)n1-c1ccccc1
Result string: active

Query string: Give the logged outcome of this assay for the following compound: O=[N+]([O-])c1ccccc1/C=N/n1c(COc2ccccc2)n[nH]c1=S
Result string: inactive

Query string: Give the logged outcome of this assay for the following compound: COc1ccc(O)c(C=Nc2cc(C)on2)c1
Result string: inactive

Query string: Give the logged outcome of this assay for the following compound: S=c1[nH]nc(COc2ccccc2)n1-c1ccccc1
Result string: active

Query string: Give the logged outcome of this assay for the following compound: COc1ccccc1/C=N\Nc1cc(C)nc(-n2nc(C)cc2C)n1
Result string: active

Query string: Give the logged outcome of this assay for the following compound: CC(Sc1nnc(COc2ccccc2)n1-c1ccccc1)C(=O)O (stereo not given)
Result string: inactive

Query string: Give the logged outcome of this assay for the following compound: CCN(CC(=O)Nc1ccc2c(c1)OCO2)S(=O)(=O)c1ccccc1
Result string: inactive

Query string: Give the logged outcome of this assay for the following compound: Cc1c(NC(=O)CSCc2ccccc2)cccc1C(=O)O
Result string: inactive

Query string: Give the logged outcome of this assay for the following compound: Cc1cc(Nc2ccc(Cl)cc2)nc(N2CCOCC2)n1
Result string: inactive

Query string: Give the logged outcome of this assay for the following compound: O=S1(=O)CCOC[C@H](CC2CCCCC2)N1Cc1ccc(F)cc1
Result string: inactive

Query string: Give the logged outcome of this assay for the following compound: O=C(O)c1ccc(/C=N/NC(=O)c2ccc(Br)cc2)cc1
Result string: inactive

Query string: Give the logged outcome of this assay for the following compound: CC(=O)c1ccc(Oc2cc(C)nc(-n3nc(C)cc3C)n2)cc1
Result string: active

Query string: Give the logged outcome of this assay for the following compound: Cc1ccc(-c2noc(C3CCCN(C(=O)c4cccc(Cl)c4)C3)n2)o1 (stereo not given)
Result string: inactive

Query string: Give the logged outcome of this assay for the following compound: CC(C(=O)NCCc1ccc(S(N)(=O)=O)cc1)N1C(=O)CC(C)(C)Sc2ccccc21 (stereo not given)
Result string: inactive

Query string: Give the logged outcome of this assay for the following compound: Cc1ccc(S(=O)(=O)N2CCC(C)CC2)cc1C(=O)NCc1ccccn1
Result string: inactive

Query string: Give the logged outcome of this assay for the following compound: Cc1ccc(-n2[nH]c(C)c(/C=N/N3C(=O)c4cccc5cccc(c45)C3=O)c2=O)cc1
Result string: active

Query string: Give the logged outcome of this assay for the following compound: C=CC[n+]1c(-c2ccc(C)cc2)csc1NNC(=O)Nc1ccccc1
Result string: active

Query string: Give the logged outcome of this assay for the following compound: COc1ccc(C)cc1NC(=O)CNCc1cccs1
Result string: inactive

Query string: Give the logged outcome of this assay for the following compound: Cc1ccc(S(=O)(=O)Nc2nc(C)cc(N/N=C/c3ccc(O)cc3)n2)cc1
Result string: inactive

Query string: Give the logged outcome of this assay for the following compound: Cc1ccc(SC(C)C(=O)NCc2ccc(F)cc2)cc1 (stereo not given)
Result string: inactive

Query string: Give the logged outcome of this assay for the following compound: CC1=C(C(=O)OC(C)(C)C)C(c2ccc(Br)cc2)NC(=O)N1CCCC(=O)O (stereo not given)
Result string: inactive

---

target: Nuclear receptor ROR-gamma (Mus musculus); test: qHTS for inhibitors of ROR gamma transcriptional activity; conditions: Drosophila S2 Gal4-RORgamma UAS-luciferase reporter, 20 h; series mostly up to 53.6 µM; further: nearly all actives have a fitted effect of over 60% in size
The whole screen tested about 310,000 compounds, of which about 17,000 (5.5%) were called active. Not shown: some 11% with an inconclusive outcome. The call rests on the fitted dose curve; in most records, active means well fitted inhibition curve with a large enough effect; inconclusive means small, poorly fitted or top-dose-only effect, or effect the other way; inactive means no such curve, though single readings can be large or run the other way. Shown is part of a subset that was picked to be rich in actives.
Allowed answers: T = active, F = inactive

Query string: Give the logged outcome of this assay for the following compound: CC(C)CCn1c(=O)c2c(nc3n2CCCN3Cc2ccccc2)n(C)c1=O
Result string: F

Query string: Give the logged outcome of this assay for the following compound: C=CCN1C(=NC(=O)COc2ccccc2)SC2CS(=O)(=O)CC21 (stereo unspecified)
Result string: F

Query string: Give the logged outcome of this assay for the following compound: CCn1c(Cc2ccc(OC)cc2)nnc1SCC(=O)Nc1ccc(N2CCOCC2)cc1
Result string: F

Query string: Give the logged outcome of this assay for the following compound: Cc1ccc(Oc2ccc3c(c2)C(=O)N(c2cccc4cccnc24)C3=O)cc1
Result string: F

Query string: Give the logged outcome of this assay for the following compound: Cc1cc(=O)oc(C)c1C(=O)N1CCCCC1
Result string: F

Query string: Give the logged outcome of this assay for the following compound: Cc1cccc(-n2cc(CN3CCN(C(=O)c4ncn[nH]4)CC3)c(-c3cccc(F)c3)n2)c1
Result string: F

Query string: Give the logged outcome of this assay for the following compound: COc1ccc(-n2cc(CN(C)Cc3n[nH]c(=O)[nH]3)c(-c3cccc(F)c3)n2)cc1
Result string: F

Query string: Give the logged outcome of this assay for the following compound: CCOC(=O)c1cccc(NS(=O)(=O)c2c(C(=O)N3CCCCCC3)c(C)n(C)c2C)c1
Result string: F

Query string: Give the logged outcome of this assay for the following compound: CCn1c2ccc(F)cc2c2nnc(SCCN3CCOCC3)nc21
Result string: F

Query string: Give the logged outcome of this assay for the following compound: COc1ccc(N2C(=O)C3CCCN3C2c2cccc(OC)c2)cc1 (stereo unspecified)
Result string: F

Query string: Give the logged outcome of this assay for the following compound: c1ccc(-c2cn3c(n2)CCc2ccc4cccnc4c2-3)cc1
Result string: T

Query string: Give the logged outcome of this assay for the following compound: COc1ccc(CCOC(=O)CNC(=O)c2ccc(Cl)cc2Cl)cc1
Result string: F

Query string: Give the logged outcome of this assay for the following compound: COc1cc(NC(=O)CCS(=O)(=O)c2ccc3c(c2)oc(=O)n3C)cc(OC)c1
Result string: F

Query string: Give the logged outcome of this assay for the following compound: COc1cc2c(cc1OC)CN(C(=O)c1cc(S(=O)(=O)N3CCCCC3)ccc1Cl)CC2
Result string: F

Query string: Give the logged outcome of this assay for the following compound: Cc1cccc(/C=N/NC(=O)CNc2cccc3ccccc23)n1
Result string: T

Query string: Give the logged outcome of this assay for the following compound: O=C(NCC(=O)N(c1ccccc1)C(C(=O)NCC1CCCO1)c1ccccc1)c1cccs1 (stereo unspecified)
Result string: F

Query string: Give the logged outcome of this assay for the following compound: COCCNC(=O)c1ccc(Cn2c(SCC(=O)NCC3CCCO3)nc3ccc(Br)cc3c2=O)cc1 (stereo unspecified)
Result string: F

Query string: Give the logged outcome of this assay for the following compound: Cc1ccc2c(c1)N(CC(=O)N1CCCC(C)C1)C(=O)CO2 (stereo unspecified)
Result string: F

Query string: Give the logged outcome of this assay for the following compound: Cc1ccc(C)c(N2CCN(S(=O)(=O)c3c(C)[nH]c(C)c3C(=O)N3CCCC3)CC2)c1
Result string: F

Query string: Give the logged outcome of this assay for the following compound: Cn1cccc1/C=N/NC(=O)CNc1cccc2ccccc12
Result string: F

Query string: Give the logged outcome of this assay for the following compound: CCOC(=O)C1=C(O)CSC1=Nc1cccc(Cl)c1
Result string: F
